- subjectOfTest: adenosine A1 receptor (Homo sapiens (Human), UniProt P30542)
- Sequence (P30542 whole entry): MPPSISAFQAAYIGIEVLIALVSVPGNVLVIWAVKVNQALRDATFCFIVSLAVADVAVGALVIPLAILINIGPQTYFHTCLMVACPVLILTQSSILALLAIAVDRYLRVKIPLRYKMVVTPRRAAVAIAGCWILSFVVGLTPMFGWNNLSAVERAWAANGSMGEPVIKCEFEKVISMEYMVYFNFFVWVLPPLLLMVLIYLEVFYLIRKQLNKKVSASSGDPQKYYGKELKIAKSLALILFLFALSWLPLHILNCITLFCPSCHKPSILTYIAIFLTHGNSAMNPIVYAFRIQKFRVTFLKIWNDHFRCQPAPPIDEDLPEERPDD
- assayRemarks: Adenosine receptor activity assay (Table 1), A1 cAMP
- Assay type: cell-based
pIC50: −log10 of the molar value.
Quick reference for pIC50 among some compounds
attributeMeasured: pIC50

1) C[C@H](Nc1nc(C(=O)NC[C@@H](C)O)c2sc(C(F)(F)F)cc2n1)c1cncc(F)c1 | 7.00 to 7.30
2) COC[C@@H](Nc1nc(C(=O)N2CCC2)c2sccc2n1)c1cccnc1 | < 6.30
3) Cc1cc2nc(N[C@@H](C)c3cccnc3)nc(C(=O)N3CC[C@@H](CO)C3)c2s1 | < 6.30
4) CC(C)NC(=O)c1nc(N[C@@H](C)c2ccccn2)nc2ccsc12 | < 6.30
5) Cc1cc2nc(N[C@@H](C)c3cccnc3)nc(C(=O)NCCO)c2s1 | 7.00 to 7.30
6) C[C@H](Nc1nc(C(=O)NCCC2CCNC2)c2sccc2n1)c1cncc(F)c1 (some centres unmarked) | < 6.30
7) CO[C@@H]1CCN(C(=O)c2nc(N[C@@H](C)c3ccccn3)nc3cc(C)sc23)C1 | < 6.30
8) Cc1cc2nc(N[C@@H](C)c3ccccn3)nc(C(=O)NC[C@H](C)O)c2s1 | < 6.30

###

This listing pairs molecules with measured IC50.
- subjectOfTest: adenosine A3 receptor (Homo sapiens (Human), UniProt P0DMS8)
- Sequence (P0DMS8 whole entry): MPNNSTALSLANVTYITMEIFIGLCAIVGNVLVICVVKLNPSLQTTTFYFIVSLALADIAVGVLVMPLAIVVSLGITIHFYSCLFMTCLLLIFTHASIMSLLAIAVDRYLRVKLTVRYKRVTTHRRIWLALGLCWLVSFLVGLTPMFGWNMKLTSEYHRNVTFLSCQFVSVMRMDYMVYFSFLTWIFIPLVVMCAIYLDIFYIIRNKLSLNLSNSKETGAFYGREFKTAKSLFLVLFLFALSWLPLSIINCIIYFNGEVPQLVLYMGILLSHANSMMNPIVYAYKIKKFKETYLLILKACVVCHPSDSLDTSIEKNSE
- assayRemarks: Adenosine receptor activity assay (Table 1), A3 cAMP
- Type: biochemical
attributeMeasured: IC50

1) CC(=O)Nc1ccc(CCNC(=O)c2nc(N[C@@H](C)c3cccnc3)nc3cc(C)sc23)cc1 | 50 to 100 nM
2) CC(=O)NC1CN(C(=O)c2nc(N[C@@H](C)c3cncc(F)c3)nc3cc(C)sc23)C1 | > 500 nM
3) Cc1cc2nc(N[C@@H](C)c3cncc(F)c3)nc(C(=O)N3CC(NC(=O)C4CCCO4)C3)c2s1 (stereo partly shown) | 100 to 500 nM
4) Cc1cc2nc(N[C@@H](C)c3cncc(F)c3)nc(C(=O)N3CC(NC(=O)C4CC4)C3)c2s1 | 100 to 500 nM
5) C[C@H](Nc1nc(C(=O)N2CC(NC(=O)CC(C)(C)C)C2)c2sccc2n1)c1cncc(F)c1 | > 500 nM
6) Cc1cc2nc(N[C@@H](C)c3cncc(F)c3)nc(C(=O)N3CC[C@@H]3C)c2s1 | < 10 nM
7) C[C@H](Nc1nc(C(=O)N[C@@H]2CC[C@H](O)C2)c2sccc2n1)c1cncc(F)c1 | 50 to 100 nM

###

- System: CYP 450 (isoform not given)
- assayRemarks: CYP450 inhibition at 10 μM
- Type: in vitro ADME
- cond: read-out: CYP 450 % INH @ 10 μM
attributeMeasured: inhibition at 10 µM (%)

1. CNc1cc2nc(N[C@@H](C)c3cncc(F)c3)nc(C(=O)N3CCC3)c2s1 | 67
2. C[C@H](Nc1nc(C(=O)N2CC(O)C2)c2sccc2n1)c1cncc(F)c1 | 27
3. Cc1cc2nc(N[C@@H](C)c3cccnc3)nc(C(=O)N3CCCC3)c2s1 | 90
4. CNc1cc2nc(N[C@@H](C)c3cncc(F)c3)nc(C(=O)N3CCCC3)c2s1 | 46
5. Cc1cc2nc(N[C@@H](C)c3cccnc3)nc(C(=O)N3CCC3)c2s1 | 80.5
6. CO[C@H]1CCN(C(=O)c2nc(N[C@@H](C)c3cncc(F)c3)nc3cc(C)sc23)C1 | 52
7. C[C@H](Nc1nc(C(=O)N2CC[C@H](F)C2)c2sccc2n1)c1cncc(F)c1 | 57
8. Cc1cc2nc(N[C@@H](C)c3ccccn3)nc(C(=O)N3CC[C@@H](O)C3)c2s1 | -13.9
